Tested on: SNB-75
Experiment: NCI tumour cell line growth inhibition, 48 h
Activity calls are given as the source filed them. Rule as the data show it: active = GI50 up to about 1.1 µM and inactive = higher.
Pick one: active, inactive

// known answers, use as guide
{"COMPOUND": "COc1cc(/C=C/C2=NN(c3cccc(S(=O)(=O)O)c3)C3(C2)C(Cl)C(=O)N3c2nc3ccccc3s2)ccc1O (stereo not given)", "MEASURED TARGET": "SNB-75", "ASSIGNED CATEGORY": "inactive"}
{"COMPOUND": "CCCCCCCCCCCCCCCCCCNc1ccn(C2OC(CO)C(OP(=O)(O)OCC3CCC(n4ccc(N)nc4=O)O3)C2O)c(=O)n1 (stereo not given)", "MEASURED TARGET": "SNB-75", "ASSIGNED CATEGORY": "inactive"}
{"COMPOUND": "Cc1noc(NS(=O)(=O)c2ccc(NC(=O)c3ccc4[nH]c5ccccc5c(=O)c4c3)cc2)c1C", "MEASURED TARGET": "SNB-75", "ASSIGNED CATEGORY": "inactive"}
{"COMPOUND": "CCC1(O)C(=O)OCc2c1cc1n(c2=O)Cc2cc3c(N)cccc3nc2-1 (stereo not given)", "MEASURED TARGET": "SNB-75", "ASSIGNED CATEGORY": "active"}
{"COMPOUND": "CCCCCCCCCCCCCCCCP(=O)(OC)OC", "MEASURED TARGET": "SNB-75", "ASSIGNED CATEGORY": "inactive"}

Data request: What was the test verdict on Nc1ncnc2c1ncn2CCCC(c1ccccc1)P(=O)(O)O (stereo not given) ?
Data returned: inactive

Data request: What was the test verdict on O=C(O)CCC1(C(=O)O)CCC(=O)c2ccccc21 (stereo not given) ?
Data returned: inactive

Data request: What was the test verdict on COc1cc(O)c(C(=O)CC(C)=O)c(OC)c1 ?
Data returned: inactive

Data request: What was the test verdict on CC(Nc1cc(=O)n(C)c(=O)[nH]1)c1ccccc1 (stereo not given) ?
Data returned: inactive

Data request: What was the test verdict on CO/N=C/c1c(-c2ccc(Cl)cc2)c(/C=N/OC)n2c1sc1ccccc12 ?
Data returned: inactive

Data request: What was the test verdict on CC(=O)N1c2cc(/N=N/N(C)C)ccc2NC(=O)CC1C (stereo not given) ?
Data returned: inactive

Data request: What was the test verdict on [O-]c1c2cc(-[n+]3c(-c4ccccc4)cc(-c4ccccc4)cc3-c3ccccc3)cc1COCCOCCOCCOCCOC2 ?
Data returned: inactive

Data request: What was the test verdict on O=C(CSC(=S)N1CCOCC1)Nc1nc2c(s1)CCCC2 ?
Data returned: inactive

Data request: What was the test verdict on COc1cccc(-n2c(N)c(-c3nc4cc(C(F)(F)F)ccc4s3)c3ccc([N+](=O)[O-])cc3c2=O)c1 ?
Data returned: inactive

Data request: What was the test verdict on COC(=O)C(NC(=O)C12CCC(C)(C(=O)O1)C2(C)C)c1cc(C(C)(C)C)c(O)c(C(C)(C)C)c1 (stereo not given) ?
Data returned: inactive

Data request: What was the test verdict on COc1ccc(N2C(=O)C3c4[nH]c5ccccc5c4C4C(C)CCCC4C3C2=O)cc1 (stereo not given) ?
Data returned: inactive

Data request: What was the test verdict on CCOC(=O)C(O)(NC(=O)NC(O)(C(=O)OCC)C(F)(F)F)C(F)(F)F (stereo not given) ?
Data returned: inactive

Data request: What was the test verdict on COc1ccc(CCCCl)c(C2=NCCc3cc(OC)c(OC)cc32)c1 ?
Data returned: inactive

Data request: What was the test verdict on O=C1/C(=C/c2ccccc2)CN(C(=O)Oc2ccc([N+](=O)[O-])cc2)C/C1=C\c1ccccc1 ?
Data returned: inactive

Data request: What was the test verdict on CCCCCC/C=C\CCCCCCCCCc1cccc(OC)c1O ?
Data returned: inactive

###

Give GI50 for every item shown.
Tested on: M19-MEL
Test: NCI tumour cell line growth inhibition, 48 h
Activity calls are given as the source filed them. No stated cut-off is given here; in the data, active = GI50 up to about 1.1 µM and inactive = higher.

The examples below pair each entry with its known result.
{"MOLECULE": "CCCCCCCCCCCCCCCCP(=O)(OC)OC", "PARAMETER": "GI50", "RECORDED RESULT": "16.4 µM (inactive)"}
{"MOLECULE": "COc1nc(SC)nc2c1cnn2C1OC(C(O)CO)C(OC)C1O (stereo not given)", "PARAMETER": "GI50", "RECORDED RESULT": "> 75.5 µM (inactive)"}
{"MOLECULE": "C=C1C(=O)OC2(C)C3CCC(C3)C12 (stereo not given)", "PARAMETER": "GI50", "RECORDED RESULT": "44.8 µM (inactive)"}

Please state GI50 for every molecule in the list that follows.
1. CCOC(=O)C(=O)Nc1c(F)cc(F)cc1Br
2. CCCCCCCCCCCCC(SCCNC(=O)CCNC(=O)C(O)C(C)(C)COP(=O)(O)OP(=O)(O)OCC1OC(n2cnc3c(N)ncnc32)C(O)C1OP(=O)(O)O)C(=O)NCC(N)=O (stereo not given)
3. CCOC(=O)C(C(=O)OCC)=c1sc(=C(C(=O)OCC)C(=O)OCC)s1

Data returned:
["> 100 µM (inactive)", "> 100 µM (inactive)", "> 100 µM (inactive)"]

Please state GI50 for every molecule in the list that follows.
1. Cc1cc(CC(O)c2ccc(Cl)c(Cl)c2)nc(O)n1 (stereo not given)
2. C/C(=N\NC(=S)N1CCCCCC1)c1nccnc1C
3. CC1(C)CC[C@]2(C(=O)O)CCC3(C)C(=CCC4[C@@]5(C)CC[C@H](OC6OCC(O)C(O)C6OC6OC(CO)C(O)C(O)C6O)C(C)(C)C5CC[C@]43C)C2C1 (stereo not given in full)
4. CC(=O)OCc1c(O)nc2c(c1O)-c1ccccc1CC2

Data returned:
1. 58.6 µM (inactive)
2. 0.174 µM (active)
3. 1.83 µM (inactive)
4. 54.3 µM (inactive)

###

Reported GI50, HCT-15.
Numbers only, in µM.

{"COMPOUND": "CN(/N=C1\\C(=O)Nc2ccccc21)c1ccccc1", "GI50 / µM": 44.2}

Please state GI50 for every compound in the list that follows.
1. COc1cccc(C2c3cc4c(cc3OC(O)(CO)C2C(=O)O)OCO4)c1.COc1cccc(C2c3cc4c(cc3OC3(O)COC(=O)C23)OCO4)c1 (configuration not stated)
2. CCCCCCCCCCCCCCCCCCNc1ccn(C2OC(CO)C(OP(=O)(O)OCC3CCC(n4ccc(N)nc4=O)O3)C2O)c(=O)n1 (configuration not stated)

Data returned:
1: 43.9; 2: 40.3

###

Test system: HCT-116
Experiment: NCI tumour cell line growth inhibition, 48 h
Calls of active or inactive are those of the source. Rule as the data show it: active = GI50 up to about 1.1 µM and inactive = higher. Where a SMILES comes first, the peptide text is derived from it. [ ]: non-standard residue; d: D form. The star is where a group is joined. Cbz = O=C(OCc1ccccc1)*; Aib = CC(C)(N)C(=O)O
PARAMETER: GI50

{"COMPOUND": "CC(=O)Nc1ccc(C2[C@H]3C(=O)N(c4ccc(Cc5ccc(N6C(=O)[C@@H]7ON(c8ccccc8)C(c8ccc(NC(C)=O)cc8)[C@@H]7C6=O)cc5)cc4)C(=O)[C@H]3ON2c2ccccc2)cc1 (stereo partly drawn)", "RECORDED RESULT": "> 100 µM (inactive)"}
{"COMPOUND": "O=C(N/C(=C\\c1ccc(Br)cc1)c1nc2ccccc2s1)c1ccccc1", "RECORDED RESULT": "53 µM (inactive)"}
{"COMPOUND": "COc1ccc(N2C(=O)C3c4[nH]c5ccccc5c4C4C(C)CCCC4C3C2=O)cc1 (stereo not drawn)", "RECORDED RESULT": "13 µM (inactive)"}
{"COMPOUND": "CN(C)CCCN1N=Nc2cccc3cccc1c23", "RECORDED RESULT": "28.8 µM (inactive)"}
{"COMPOUND": "CC(C)(NC(=O)C(C)(C)NC(=O)OCc1ccccc1)C(=O)O (Cbz-[Aib]-[Aib]-OH)", "RECORDED RESULT": "> 100 µM (inactive)"}
{"COMPOUND": "Nc1ccc(Cc2ccc(/N=C\\c3ccc(OCc4cccc(COc5ccc(/C=N\\c6ccc(Cc7ccc(N)cc7)cc6)cc5)n4)cc3)cc2)cc1", "RECORDED RESULT": "> 100 µM (inactive)"}
{"COMPOUND": "C=CCn1c(=S)sc2c(C(=O)OCC)c3c(C)cc(C)cn3c2c1=O", "RECORDED RESULT": "> 100 µM (inactive)"}

Next compound, GI50 to be filled in.
Record COC[C@@H](/N=C/C(C)(C)C)C(C)C . Reported GI50: > 100 µM (inactive)

###

Test system: SK-MEL-5
Assay: NCI tumour cell line growth inhibition, 48 h
Active and inactive are the calls of the source. No stated cut-off is given here; in the data, active = GI50 up to about 1.1 µM and inactive = higher.
PARAMETER: GI50

{"MOLECULE": "CCOC(=O)c1ccc(NC2Oc3cc4c(cc3C(c3cc(OC)c(OC)c(OC)c3)C2C)OCO4)cc1 (configuration not stated)", "PARAMETER": "GI50", "RECORDED RESULT": "0.294 µM (active)"}
{"MOLECULE": "CCCCCC/C=C\\CCCCCCCCCc1cccc(OC)c1O", "PARAMETER": "GI50", "RECORDED RESULT": "> 100 µM (inactive)"}
{"MOLECULE": "C/C(=N\\NC(=S)N1CCCCCC1)c1nccnc1C", "PARAMETER": "GI50", "RECORDED RESULT": "0.0292 µM (active)"}
{"MOLECULE": "CCOC(=O)C(CCCNC(=O)OC(C)(C)C)N(Cc1ccc(OC)cc1OC)C(=O)CC(=O)CP(=O)(OCC)OCC (configuration not stated)", "PARAMETER": "GI50", "RECORDED RESULT": "> 100 µM (inactive)"}
{"MOLECULE": "Nc1ccc(Cc2ccc(/N=C\\c3ccc(OCc4cccc(COc5ccc(/C=N\\c6ccc(Cc7ccc(N)cc7)cc6)cc5)n4)cc3)cc2)cc1", "PARAMETER": "GI50", "RECORDED RESULT": "> 100 µM (inactive)"}

Please state GI50 for every molecule in the list that follows.
1. COC(=O)c1cn(CC(O)CCl)nn1 (configuration not stated)
2. CCCCCCn1c(SCC)c2ccccc2c1-c1nc(F)nc(F)n1
3. C=C[C@@H](C)[C@]1(C(=O)OC)CCCC12OCCO2
4. COc1cc(/C=C2\C(=O)N(c3cccc(Cl)c3)C(c3ccccc3)S2(=O)=O)cc(OC)c1OC (configuration not stated)
5. CSc1ccc2c(c1)C(N1CCN(C)CC1)Cc1ccccc1S2 (configuration not stated)
6. CN(C)/C=N/Cc1ccc2c(c1)OCO2
7. O=c1/c(=C/c2ccc3c(c2)OCO3)sc2nnc(Cc3ccccc3)n12
8. C[C@@H]1[C@@H](c2ccccc2)O[B-](c2ccccc2)(c2ccccc2)[N+]1(C)C

Data returned:
1. > 100 µM (inactive)
2. > 100 µM (inactive)
3. > 100 µM (inactive)
4. 39.2 µM (inactive)
5. 1.82 µM (inactive)
6. > 100 µM (inactive)
7. > 100 µM (inactive)
8. 27.5 µM (inactive)

Please state GI50 for every molecule in the list that follows.
1. C1=NN(Cc2ccccc2)C(N(Cc2ccccc2)Cc2ccccc2)N1 (configuration not stated)
2. O=c1ccc2ccc(O)c3c4c(O)ccc5ccc(=O)c(c1c23)c54
3. O=C1C(O)=C(C(C2=C(O)C(=O)c3ccccc3C2=O)c2ccc(Cl)cc2)C(=O)c2ccccc21
4. CCCCCCCCCCCCC(SCCNC(=O)CCNC(=O)C(O)C(C)(C)COP(=O)(O)OP(=O)(O)OCC1OC(n2cnc3c(N)ncnc32)C(O)C1OP(=O)(O)O)C(=O)NCC(N)=O (configuration not stated)
5. O=C(O)CCC1(C(=O)O)CCC(=O)c2ccccc21 (configuration not stated)
6. CN1C/C(=C\c2cccs2)C2=NN(C)C(c3cccs3)C2C1 (configuration not stated)

Data returned:
14.2 µM (inactive)
1.14 µM (inactive)
6.67 µM (inactive)
> 100 µM (inactive)
> 100 µM (inactive)
58.3 µM (inactive)

Please state GI50 for every molecule in the list that follows.
1. NS(=O)(=O)c1ccc(NC(=S)N/C=C2\C(=O)Oc3ccccc3C2=O)cc1
2. Cc1csc2c(=O)n(COCc3ccccc3)c(=O)[nH]c12

Data returned:
26.1 µM (inactive)
91.2 µM (inactive)

Record CCOC(=O)C(=O)Nc1nc2ccc(C)cc2s1 . Reported GI50: > 100 µM (inactive)
